Let's look at some molecules and their measured IC50.
# Tested Target: Potassium voltage-gated channel subfamily A member 5 (Homo sapiens, UniProt P22460)
# Sequence (P22460 whole entry): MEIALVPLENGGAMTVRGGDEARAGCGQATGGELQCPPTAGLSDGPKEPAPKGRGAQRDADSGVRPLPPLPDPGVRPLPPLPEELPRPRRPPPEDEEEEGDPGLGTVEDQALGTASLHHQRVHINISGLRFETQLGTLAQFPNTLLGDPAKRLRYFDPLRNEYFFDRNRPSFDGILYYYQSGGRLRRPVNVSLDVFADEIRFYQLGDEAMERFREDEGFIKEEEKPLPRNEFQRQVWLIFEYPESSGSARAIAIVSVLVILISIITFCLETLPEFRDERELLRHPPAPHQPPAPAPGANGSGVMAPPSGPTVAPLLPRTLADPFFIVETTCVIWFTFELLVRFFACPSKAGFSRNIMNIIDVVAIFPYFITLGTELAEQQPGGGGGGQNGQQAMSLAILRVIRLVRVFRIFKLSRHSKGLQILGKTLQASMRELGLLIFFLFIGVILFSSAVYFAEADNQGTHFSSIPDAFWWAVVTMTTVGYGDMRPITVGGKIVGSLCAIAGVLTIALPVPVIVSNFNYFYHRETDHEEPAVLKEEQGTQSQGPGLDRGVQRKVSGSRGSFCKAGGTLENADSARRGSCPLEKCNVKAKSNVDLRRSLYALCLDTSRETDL
# Experimental Protocol: Inhibition of human Kv1.5 channel expressed in HEK293 cells by whole cell patch clamp assay
Give just the number in µM; leave the unit off.

Please review the following examples before continuing.
O=C(c1cccs1)N1CCN(CCOc2ccc(Cl)cc2)CC1 = 0.72
O=C(c1cccs1)N1CCN(CCOc2ccccc2Cl)CC1 = 9.74
COc1ccc(OCCN2CCN(C(=O)c3cccs3)CC2)cc1 = 21.9
COc1ccc(NC(=O)CN2CCN(CCOc3ccc(Cl)cc3)CC2)cc1 = 2.62
COc1ccc(C(=O)N2CCN(CCOc3ccc(Cl)cc3)CC2)cc1 = 5.5

Asked: Find the measured IC50 of O=C(c1cccs1)N1CCN(CCOc2ccc(Cl)cc2Cl)CC1 and report it.
Given back: 1.48

Asked: State, in one line, measured IC50 of O=C(CN1CCN(CCOc2ccc(OC(F)(F)F)cc2)CC1)Nc1ccccc1
Given back: 7.33

Asked: Supply IC50 value. Item: O=C(CN1CCN(CCOc2ccc(OC(F)(F)F)cc2)CC1)Nc1nccs1
Given back: 2.29

Asked: Fill in IC50 for record O=C(CN1CCN(CCOc2ccccc2)CC1)Nc1ccccc1Cl
Given back: 29.4

Asked: Complete the entry with IC50 for Cc1cccc(C)c1OCCN1CCN(CC(=O)Nc2nccs2)CC1
Given back: 85.9

Asked: Tell me measured IC50 for CC(C)(C)c1ccc(OCCN2CCN(CC(=O)Nc3nccs3)CC2)cc1 please.
Given back: 63.2

* * *

# Test system: MDCK
# Experimental Protocol: Efflux ratio of permeability from apical to basolateral over basolateral to apical in MDCK cells expressing MDR1
# Format: ADME, cell-based, Canis lupus familiaris
# Test Context: dog
Reported Ratio values follow for various compounds
Just the number.

Sample records with Ratio:
O=C(CN1CCN(CCOc2ccc(OC(F)(F)F)cc2)CC1)Nc1nccs1 = 1.42
O=C(c1cccs1)N1CCN(CCOc2ccc(Cl)cc2)CC1 = 0.84
O=C(c1cccs1)N1CCN(CCOc2ccc(Cl)cc2Cl)CC1 = 1.24
Cc1ccccc1OCCN1CCN(CC(=O)Nc2nccs2)CC1 = 0.92
Cc1ccc(OCCN2CCN(C(=O)c3cccs3)CC2)cc1 = 0.78

Kindly review the next compound as well.
Asked: Return the recorded Ratio value; entry: N#Cc1ccc(OCCN2CCN(CC(=O)Nc3nccs3)CC2)cc1
Given back: 1.14

* * *

# Tested on: MDR1
# Experimental Protocol: Apparent permeability from apical to basolateral side in MDCK cells expressing MDR1
# Format: ADME, cell-based, Canis lupus familiaris
# Test Context: dog, MDCK-MDR1
Outcome Measure: Papp A→B (×10⁻⁶ cm/s)
Supply the numeric figure in ×10⁻⁶ cm/s, leaving out any unit text.

Cc1ccc(OCCN2CCN(C(=O)c3cccs3)CC2)cc1 = 25.6
O=C(c1cccs1)N1CCN(CCOc2ccc(Cl)cc2Cl)CC1 = 39.1
Cc1ccccc1OCCN1CCN(CC(=O)Nc2nccs2)CC1 = 28.9

Asked: Please tell me the measured Papp A→B for O=C(c1cccs1)N1CCN(CCOc2ccc(Cl)cc2)CC1 ; system: MDR1.
Given back: 16.1

* * *

# Tested on: MDCK
# Experimental Protocol: Efflux ratio of permeability from apical to basolateral over basolateral to apical in MDCK cells
# Format: ADME, cell-based, Canis lupus familiaris
# Test Context: dog
Entries and their Ratio values follow.
Please reply with the number alone, leaving off any unit.

In the examples that follow, each entry is paired with its recorded Ratio.
O=C(c1cccs1)N1CCN(CCOc2ccc(Cl)cc2)CC1 = 0.97
O=C(CN1CCN(CCOc2ccc(OC(F)(F)F)cc2)CC1)Nc1nccs1 = 1.5
Cc1ccccc1OCCN1CCN(CC(=O)Nc2nccs2)CC1 = 1.09
O=C(c1cccs1)N1CCN(CCOc2ccc(Cl)cc2Cl)CC1 = 0.89

Asked: Name the recorded Ratio of the item Cc1ccc(OCCN2CCN(C(=O)c3cccs3)CC2)cc1 in your answer.
Given back: 0.64

Asked: Supply recorded Ratio for N#Cc1ccc(OCCN2CCN(CC(=O)Nc3nccs3)CC2)cc1 here.
Given back: 1.14

* * *

# Tested Target: Potassium voltage-gated channel subfamily A member 5 (Homo sapiens, UniProt P22460)
# Experimental Protocol: Inhibition of human Kv1.5 channel expressed in HEK293 cells by whole cell patch clamp assay
Counter-ions that a name gives are not always drawn.
Outcome Measure: IC50 (µM)
Quick reminder: number only, in µM, skip the unit.

Past entries and their recorded results:
CCCCc1oc2ccc(NS(C)(=O)=O)cc2c1C(=O)c1ccc(OCCCN(CCCC)CCCC)cc1 [DRONEDARONE HYDROCHLORIDE] = 2.37
O=C(c1cccs1)N1CCN(c2ccc(OC(F)(F)F)cc2)CC1 = 48.4
Cc1ccccc1OCCN1CCN(CC(=O)Nc2ccccc2)CC1 = 11.8
Cc1ccc(NC(=O)CN2CCN(CCOc3ccc(Cl)cc3)CC2)cc1 = 5.02
N#Cc1ccc(OCCN2CCN(C(=O)c3cccs3)CC2)cc1 = 10.2
COc1ccc(NC(=O)CN2CCN(CCOc3ccccc3)CC2)cc1 = 10.1
Cc1ccc(OCCN2CCN(C(=O)c3cccs3)CC2)cc1 = 1.52
O=C(CN1CCN(CCOc2ccccc2)CC1)Nc1nccs1 = 29.3
O=C(c1cccs1)N1CCN(CCOc2ccc(F)cc2)CC1 = 12.7
N#Cc1ccc(OCCN2CCN(CC(=O)Nc3nccs3)CC2)cc1 = 0.97

Asked: Tell us which IC50 value is on record for COc1ccc(NC(=O)CN2CCN(CCOc3ccc(C#N)cc3)CC2)cc1
Given back: 14.5

Asked: // Input: Cc1ccc(C(=O)N2CCN(CCOc3ccc(Cl)cc3)CC2)cc1 . Output its IC50 only.
Given back: 4.51

Asked: Supply reported IC50 belonging to this molecule: Cc1ccc(NC(=O)CN2CCN(CCOc3ccccc3)CC2)cc1
Given back: 16.1

* * *

# Experimental Protocol: Partition coefficient, log D of the compound at pH 7.4
# Assay type: physicochemical
# Test Context: octanol/water
Listed here: items and their measured logD.
Provide a numeric answer; units are not to be included.

Some compounds with known logD results, for comparison:
Cc1ccccc1OCCN1CCN(CC(=O)Nc2nccs2)CC1 = 2.45
O=C(c1cccs1)N1CCN(CCOc2ccc(Cl)cc2)CC1 = 1.94
N#Cc1ccc(OCCN2CCN(CC(=O)Nc3nccs3)CC2)cc1 = 1.72

Asked: Note logD for the compound shown: O=C(c1cccs1)N1CCN(CCOc2ccc(Cl)cc2Cl)CC1
Given back: 3.73

Asked: Could you please provide reported logD for Cc1ccc(OCCN2CCN(C(=O)c3cccs3)CC2)cc1 ? Thanks!
Given back: 3.24

Asked: Please give measured logD of the following entry: O=C(CN1CCN(CCOc2ccc(OC(F)(F)F)cc2)CC1)Nc1nccs1
Given back: 3.94
